target-or-test-system: HiBit-BRG1 fusion protein (Homo sapiens)
Construct: expressed in transfected cells
Sequence (P51532 whole entry, the tested form may be a part): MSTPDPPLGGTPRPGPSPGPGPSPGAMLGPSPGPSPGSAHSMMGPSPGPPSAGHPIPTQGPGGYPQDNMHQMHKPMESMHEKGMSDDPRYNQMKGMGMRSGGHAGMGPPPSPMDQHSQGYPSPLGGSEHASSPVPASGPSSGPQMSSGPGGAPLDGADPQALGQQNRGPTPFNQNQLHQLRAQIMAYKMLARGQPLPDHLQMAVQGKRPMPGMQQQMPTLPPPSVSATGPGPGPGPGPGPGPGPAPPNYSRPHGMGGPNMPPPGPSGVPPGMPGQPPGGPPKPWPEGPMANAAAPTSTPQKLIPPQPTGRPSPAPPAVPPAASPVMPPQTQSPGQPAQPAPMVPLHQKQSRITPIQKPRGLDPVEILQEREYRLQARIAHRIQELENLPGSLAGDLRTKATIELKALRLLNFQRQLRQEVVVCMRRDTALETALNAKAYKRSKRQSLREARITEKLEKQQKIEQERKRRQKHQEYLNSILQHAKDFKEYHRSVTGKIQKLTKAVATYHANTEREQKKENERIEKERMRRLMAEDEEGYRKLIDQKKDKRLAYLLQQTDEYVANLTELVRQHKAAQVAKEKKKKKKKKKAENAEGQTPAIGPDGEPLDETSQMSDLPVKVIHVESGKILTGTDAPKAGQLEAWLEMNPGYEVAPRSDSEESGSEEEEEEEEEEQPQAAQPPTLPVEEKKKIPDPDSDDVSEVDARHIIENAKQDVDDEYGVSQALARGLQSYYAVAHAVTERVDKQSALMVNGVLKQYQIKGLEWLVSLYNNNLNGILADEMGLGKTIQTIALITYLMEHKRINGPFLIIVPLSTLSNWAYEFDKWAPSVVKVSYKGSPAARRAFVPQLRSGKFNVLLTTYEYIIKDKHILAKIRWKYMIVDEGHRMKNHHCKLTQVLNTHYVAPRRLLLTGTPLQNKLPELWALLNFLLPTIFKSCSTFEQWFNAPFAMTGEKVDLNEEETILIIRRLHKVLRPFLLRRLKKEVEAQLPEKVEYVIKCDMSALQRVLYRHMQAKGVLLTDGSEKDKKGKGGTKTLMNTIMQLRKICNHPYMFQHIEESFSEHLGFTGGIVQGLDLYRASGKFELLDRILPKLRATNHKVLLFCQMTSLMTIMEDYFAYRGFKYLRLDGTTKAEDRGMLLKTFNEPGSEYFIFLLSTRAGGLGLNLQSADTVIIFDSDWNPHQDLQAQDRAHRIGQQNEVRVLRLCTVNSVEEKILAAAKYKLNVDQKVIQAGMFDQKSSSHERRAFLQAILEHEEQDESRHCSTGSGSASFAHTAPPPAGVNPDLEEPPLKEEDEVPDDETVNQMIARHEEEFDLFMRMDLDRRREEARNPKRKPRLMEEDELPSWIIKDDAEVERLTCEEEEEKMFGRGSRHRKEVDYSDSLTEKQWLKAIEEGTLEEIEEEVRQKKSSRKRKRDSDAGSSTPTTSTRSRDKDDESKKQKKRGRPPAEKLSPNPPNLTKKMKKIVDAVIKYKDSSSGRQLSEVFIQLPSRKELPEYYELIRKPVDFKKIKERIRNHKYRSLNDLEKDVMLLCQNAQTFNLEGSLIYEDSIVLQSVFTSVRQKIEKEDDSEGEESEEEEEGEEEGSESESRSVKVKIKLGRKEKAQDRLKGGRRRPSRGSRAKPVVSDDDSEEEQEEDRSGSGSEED
assay-remarks: HiBiT-BRG1 cell-based degradation assay (Nano-Glo HiBiT Lytic Detection, 24 h)
experimental-parameters: HeLa, HeLa cells expressing HiBit-BRG1 and LgBit, top dose 30 μM, read-out: BRG1 HiBit Degradation Maximum measured
Procedure: Procedure: A stable HeLa cell line expressing HiBiT-BRM was generated. On day 0, 5000 cells were seeded in 40 μL of media into each well of 384-well cell culture plates. […] The plates were shaken for 10 minutes at room temperature and the bioluminescence read using an EnVision plate reader (PerkinElmer). […] The degradation % was calculated using the following formula: % degradation=100%−100%×(LumSample−LumLC)/(LumHC−LumLC). […]
Quick list: Dmax per entry.

Example cases with answers are listed next.
Request: Dmax, test system HiBit-BRG1 fusion protein (Homo sapiens), entry Cc1ncsc1-c1ccc(CNC(=O)[C@@H]2C[C@@H](O)CN2C(=O)[C@@H](NC(=O)CCCCCCCCCNC(=O)CN(C)c2cc(-c3cccc(-c4csc(NC(=O)CNC(=O)c5ccn(S(C)(=O)=O)c5)n4)c3)ccn2)C(C)(C)C)cc1
50 to 75%

Request: Dmax, test system HiBit-BRG1 fusion protein (Homo sapiens), entry CS(=O)(=O)n1ccc(C(=O)NCC(=O)Nc2nc(-c3cccc(-c4ccnc(C5(C(=O)NCCCCS(=O)(=O)CCCNc6cccc7c6C(=O)N(C6CCC(=O)NC6=O)C7=O)CC5)c4)c3)cs2)c1 (stereo not shown)
> 75%

Request: Dmax, test system HiBit-BRG1 fusion protein (Homo sapiens), entry CS(=O)(=O)n1ccc(C(=O)N[C@@H](COCc2ccc(C(=O)NCCCCS(=O)(=O)CCCNc3cccc4c3C(=O)N(C3CCC(=O)NC3=O)C4=O)cc2)C(=O)Nc2nc(-c3ccccc3)cs2)c1 (stereo partly shown)
50 to 75%

We next turn to a different compound, shown below.
Request: Dmax, test system HiBit-BRG1 fusion protein (Homo sapiens), entry Cc1ncsc1-c1ccc(CNC(=O)[C@@H]2C[C@@H](O)CN2C(=O)[C@@H](NCc2cccc(-c3cccc(-c4csc(NC(=O)CNC(=O)c5ccn(S(C)(=O)=O)c5)n4)c3)c2)C(C)(C)C)cc1
< 50%
